Cited source: PubChem BioAssay (NCI)

System: SF-268 CNS
METHOD DESCRIPTION: NCI tumour cell line growth inhibition, 48 h
PROPERTY LABEL: TGI (µM)
All answers are understood in µM, so give the number only.

# MOLECULE, TGI (µM)
rows = [
    ("C[C@]12CC[C@@H]3c4ccc(O)cc4CC[C@H]3[C@@H]1Cc1cnc(N)nc12", 38.8),
]

Q: What value of TGI on SF-268 CNS does COC(=O)C1=C(C)NC(C)=C(C(=O)OCC(C)C)C1c1ccccc1[N+](=O)[O-] (centres undefined) have?
Ans: 22.7

Q: Under SF-268 CNS: TGI value of Cc1cnc(CNC(=O)c2c(=O)c3ccc(N4CCCN(C)CC4)nc3n3c2sc2ccccc23)cn1 ?
Ans: 25.6

Q: Query for SF-268 CNS: what TGI does the record show for CN(C)CC1CCC2=C(C1=O)C(c1ccc(Cl)c(Cl)c1)C1=C(CCC(CN(C)C)C1=O)O2 (centres undefined) ?
Ans: 29.5

Q: Query the reported TGI for SF-268 CNS; item: O=C(c1cc2c(c3ccccc13)NC1(CCCCC1)N=C2C(F)(F)F)C(F)(F)F
Ans: 20
